# study system: TDP1 (Homo sapiens)
# Sequence (Q9NUW8 whole entry): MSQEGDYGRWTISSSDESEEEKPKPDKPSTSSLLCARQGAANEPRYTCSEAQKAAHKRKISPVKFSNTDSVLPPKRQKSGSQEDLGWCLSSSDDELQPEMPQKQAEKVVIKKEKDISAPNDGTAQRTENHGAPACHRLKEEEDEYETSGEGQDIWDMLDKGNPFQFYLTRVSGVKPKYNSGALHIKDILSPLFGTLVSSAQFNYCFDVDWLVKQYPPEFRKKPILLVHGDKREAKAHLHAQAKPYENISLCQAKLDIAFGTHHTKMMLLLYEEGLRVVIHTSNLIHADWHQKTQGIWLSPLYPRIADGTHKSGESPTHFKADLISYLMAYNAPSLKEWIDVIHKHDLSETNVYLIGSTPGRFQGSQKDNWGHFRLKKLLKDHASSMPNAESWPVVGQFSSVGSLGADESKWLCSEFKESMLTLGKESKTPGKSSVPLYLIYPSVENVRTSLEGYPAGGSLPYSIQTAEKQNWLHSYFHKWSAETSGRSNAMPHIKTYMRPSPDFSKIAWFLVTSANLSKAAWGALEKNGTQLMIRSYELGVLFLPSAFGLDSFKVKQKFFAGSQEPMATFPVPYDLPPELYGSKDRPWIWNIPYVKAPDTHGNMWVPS
# experiment: TDP1 activity, real-time fluorescence oligonucleotide biosensor (FAM/BHQ1)
# Type: biochemical
# setup conditions: 1.5 nM TDP1, 50 nM biosensor
The following compounds are listed with their measured log10(IC50) values.
Log scale reminder: IC50 in µM, then log10 taken.

Examples with their reported log10(IC50) follow.
Q. Dear colleague, I am looking for the recorded log10(IC50) of the following compound: CC(CCC(=O)O)C1CCC2C3CCC4CC(O)(CSc5nccn5C)CCC4(C)C3CC(O)C12C (centres unmarked) [3b]
A. 1.48

Q. Returns the measured log10(IC50) for the input compound. Input: COC(=O)CCC(C)C1CCC2C3CCC4CC(O)(CSc5nc6ccccc6s5)CCC4(C)C3CC(O)C12C (centres unmarked) [4e]
A. -0.20

Q. Data request, read-out log10(IC50), for CC(CCC(=O)O)C1CCC2C3CCC4CC(O)(CSc5ccncc5)CCC4(C)C3CC(O)C12C (centres unmarked) [3a]
A. 1.34

---
Q. Please report the recorded log10(IC50) for COC(=O)CCC(C)C1CCC2C3CCC4CC(O)(CSc5nc6cc(C)ccc6[nH]5)CCC4(C)C3CC(O)C12C (centres unmarked) [4d] .
A. -0.03

Q. Given the entry Cc1ccc2[nH]c(SCC3(O)CCC4(C)C(CCC5C4CC(O)C4(C)C(C(C)CCC(=O)O)CCC54)C3)nc2c1 (centres unmarked) [3d] , report its measured log10(IC50).
A. 1.40

Q. Form field: reported log10(IC50) of CC(CCC(=O)O)C1CCC2C3CCC4CC(O)(CSc5nc[nH]n5)CCC4(C)C3CC(O)C12C (centres unmarked) [3c]
A. 1.51

Q. If you can, please state the reported log10(IC50) value of CC(CCC(=O)O)C1CCC2C3CCC4CC(O)(CSc5nc6ccccc6s5)CCC4(C)C3CC(O)C12C (centres unmarked) [3e] .
A. 1.15

Q. Returns the measured log10(IC50) for the input compound. Input: COC(=O)CCC(C)C1CCC2C3CCC4CC(O)(CSc5nc6ccccc6o5)CCC4(C)C3CC(O)C12C (centres unmarked) [4f]
A. 0.26

---

Consider the following compounds and their measured pIC50 readings.
# study system: TDP2 (Homo sapiens, UniProt O95551)
# Sequence (O95551 1-362): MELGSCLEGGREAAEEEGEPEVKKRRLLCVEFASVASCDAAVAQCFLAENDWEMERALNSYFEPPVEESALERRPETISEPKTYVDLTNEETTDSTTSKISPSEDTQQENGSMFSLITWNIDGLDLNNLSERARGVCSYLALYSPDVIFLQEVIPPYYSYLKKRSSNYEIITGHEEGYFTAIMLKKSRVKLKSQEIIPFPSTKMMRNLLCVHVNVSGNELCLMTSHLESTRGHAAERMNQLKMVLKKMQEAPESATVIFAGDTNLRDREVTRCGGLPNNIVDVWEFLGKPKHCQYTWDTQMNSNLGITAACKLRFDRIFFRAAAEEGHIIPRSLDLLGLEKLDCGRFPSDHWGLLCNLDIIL
As a rule, pIC50 stands for the negative log10 of the concentration, concentration in M.

The following compounds have reported results that may help.
Q. May I ask what pIC50 has been recorded for CC(CCC(=O)O)C1CCC2C3CCC4CC(O)(CSc5nc6ccccc6s5)CCC4(C)C3CC(O)C12C (stereo not drawn) [3e] ?
A. 4.12

Q. Can you look up the measured pIC50 of COC(=O)CCC(C)C1CCC2C3CCC4CC(O)(CSc5nc6cc(C)ccc6[nH]5)CCC4(C)C3CC(O)C12C (stereo not drawn) [4d] for me?
A. 3.66

More entries:
Q. Recorded pIC50 for Cc1ccc2[nH]c(SCC3(O)CCC4(C)C(CCC5C4CC(O)C4(C)C(C(C)CCC(=O)O)CCC54)C3)nc2c1 (stereo not drawn) [3d] , please?
A. 3.60
